molecular target: Thermotoga maritima mPPase (TmPPase) (Thermotoga maritima, UniProt Q9S5X0); experiment: TmPPase inhibition assay (96-well); assay type: biochemical; details: TmPPase inhibition; NA = IC50 not assigned
Sequence (Q9S5X0 whole entry): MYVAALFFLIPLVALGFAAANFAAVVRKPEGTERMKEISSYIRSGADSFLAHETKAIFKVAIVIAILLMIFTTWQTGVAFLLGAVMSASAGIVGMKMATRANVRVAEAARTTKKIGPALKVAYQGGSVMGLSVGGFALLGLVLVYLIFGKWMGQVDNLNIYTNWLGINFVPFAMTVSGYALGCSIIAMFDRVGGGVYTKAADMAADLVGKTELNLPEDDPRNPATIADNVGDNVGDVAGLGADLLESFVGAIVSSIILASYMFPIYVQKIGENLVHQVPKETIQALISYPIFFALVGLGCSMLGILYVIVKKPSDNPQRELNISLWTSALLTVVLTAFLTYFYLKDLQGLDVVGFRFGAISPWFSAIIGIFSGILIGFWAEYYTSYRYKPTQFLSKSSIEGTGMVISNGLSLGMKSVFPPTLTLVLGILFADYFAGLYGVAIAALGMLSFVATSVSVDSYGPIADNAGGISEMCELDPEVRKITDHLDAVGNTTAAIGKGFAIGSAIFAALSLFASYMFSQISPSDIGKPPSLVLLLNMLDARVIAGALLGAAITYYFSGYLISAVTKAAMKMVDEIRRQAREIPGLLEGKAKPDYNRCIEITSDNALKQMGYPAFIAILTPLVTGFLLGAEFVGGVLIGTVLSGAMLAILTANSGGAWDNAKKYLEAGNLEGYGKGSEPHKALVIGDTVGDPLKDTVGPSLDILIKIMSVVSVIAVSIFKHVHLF
MEASUREMENT LABEL: IC50 [CI95%]

RECORD SMILES | OBSERVED RESULT
O=C(O)c1cc(C2CC2)n2nc(Br)cc2n1 | completely unsuccessful
O=C(Oc1ccccc1Br)c1cc(C2CC2)n2nc(Br)cc2n1 | completely unsuccessful
C=Cc1cc2nc(C(=O)O)cc(C3CC3)n2n1 | Inactive
C=Cc1cc2nc(C(=O)OCC)cc(C3CC3)n2n1 | Inactive
C=Cc1cc2nc(C(=O)Oc3ccccc3Br)cc(C3CC3)n2n1 | Inactive

###

target: purified mPPase from P. falciparum (PfPPase-VP1) (Plasmodium falciparum); assay: PfPPase-VP1 inhibition assay; type: biochemical; conditions: IC50, purified PfPPase-VP1, 50 °C, three replicates
pIC50: −log10 of the molar value.
# pIC50 listing for each entry below
MEASUREMENT LABEL: pIC50

RECORD SMILES | TESTED ON | OBSERVED RESULT
C=Cc1cc2nc(C(=O)Oc3ccccc3Br)cc(-c3cc(C)cc(C)c3)n2n1 | purified mPPase from P. falciparum (PfPPase-VP1) (Plasmodium falciparum) | 4.13
C=Cc1cc2nc(C(=O)O)cc(-c3cc(C)cc(C)c3)n2n1 | purified mPPase from P. falciparum (PfPPase-VP1) (Plasmodium falciparum) | 3.89

###

# IC50 listing for each entry below
Molecular target: Thermotoga maritima mPPase (TmPPase) (Thermotoga maritima, UniProt Q9S5X0)
Assay: TmPPase inhibition assay (96-well)
Format: biochemical
Settings: TmPPase inhibition; NA = IC50 not assigned; read-out: IC50 [CI95%]
Source text: We started from the previously identified 5‐arylisoxazole‐3‐carboxylate core present in 2–5 (Figure 1, highlighted in blue). Using KNIME,[30] we did a substructure search for commercial analogues in the ZINC12 database[31] […] All commercially obtained compounds had purities >90 % as specified by the vendor. Synthesized compounds were >95 % pure as determined by LC–MS and characterized by HRMS. […]

COMPOUND | U | IC50
Cc1cc(C)cc(-c2cc(C(=O)Oc3ccccc3Br)nc3cc(Br)nn23)c1 [17 a] | µM | 14
CCOC(=O)c1cc(-c2cc(C)cc(C)c2)n2nc(Br)cc2n1 [15 a] | µM | 120
CCOC(=O)c1cc(-c2ccc(OC)c(S(=O)(=O)N3c4ccccc4CC3C)c2)on1 (centres unmarked) [compound 7] | µM | 56
C=Cc1cc2nc(C(=O)OCC)cc(-c3cc(C)cc(C)c3)n2n1 [18 a] | µM | 54
CCOC(=O)c1cc(-c2ccc(OC)c(S(=O)(=O)N3CCCSc4ccccc43)c2)on1 [compound 6] | µM | 5.4
C=Cc1cc2nc(C(=O)NCCN)cc(-c3cc(C)cc(C)c3)n2n1 [21 a] | µM | 72
CCOC(=O)c1cc(C2CC2)n2nc(Br)cc2n1 [15 b] | µM | 150
C=Cc1cc2nc(C(=O)NCCN)cc(C3CC3)n2n1 [21 b] | µM | 260

###

target: purified mPPase from P. falciparum (PfPPase-VP1) (Plasmodium falciparum, UniProt Q8IKR1); assay: PfPPase-VP1 inhibition assay; type: biochemical; settings: purified PfPPase-VP1, 50 °C, three replicates; read-out: IC50
Sequence (Q8IKR1 entry or part of it): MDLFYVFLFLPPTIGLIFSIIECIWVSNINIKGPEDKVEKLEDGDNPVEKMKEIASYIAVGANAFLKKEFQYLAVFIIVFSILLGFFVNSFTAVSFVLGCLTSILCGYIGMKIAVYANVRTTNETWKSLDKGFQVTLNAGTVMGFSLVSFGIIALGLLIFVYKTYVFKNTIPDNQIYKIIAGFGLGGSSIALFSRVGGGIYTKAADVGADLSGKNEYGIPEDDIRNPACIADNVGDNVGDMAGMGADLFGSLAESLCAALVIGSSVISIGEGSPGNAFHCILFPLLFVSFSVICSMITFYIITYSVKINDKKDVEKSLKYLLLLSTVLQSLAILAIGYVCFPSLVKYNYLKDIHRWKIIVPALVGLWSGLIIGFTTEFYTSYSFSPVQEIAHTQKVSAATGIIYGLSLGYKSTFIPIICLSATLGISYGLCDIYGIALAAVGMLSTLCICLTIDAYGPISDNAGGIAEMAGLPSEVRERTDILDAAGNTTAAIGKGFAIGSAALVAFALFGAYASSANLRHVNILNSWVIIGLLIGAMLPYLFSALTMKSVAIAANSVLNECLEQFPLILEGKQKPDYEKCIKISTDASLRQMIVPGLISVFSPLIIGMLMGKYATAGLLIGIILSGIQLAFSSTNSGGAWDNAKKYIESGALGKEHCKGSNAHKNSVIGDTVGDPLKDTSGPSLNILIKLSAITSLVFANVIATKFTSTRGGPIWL

MOLECULE | TESTED ON | U | IC50
COc1cc(C2c3c(-c4cc(Cl)c(C)cc4O)n[nH]c3C(=O)N2Cc2ccccc2)ccc1O (stereo not shown) [compound 12] | purified mPPase from P. falciparum (PfPPase-VP1) (Plasmodium falciparum, UniProt Q8IKR1) | µM | 180

###

system: Plasmodium falciparum parasite strain 3D7; assay: P. falciparum survival (growth) assay in erythrocyte culture, SYBR Green I; type: cell-based; settings: strain 3D7 in human erythrocytes, 72 h

RECORD SMILES | TESTED ON | IC50 (µM)
Cc1cc(C)cc(-c2cc(C(=O)Oc3ccccc3Br)nc3cc(Br)nn23)c1 | Plasmodium falciparum parasite strain 3D7 | 30.6
